Recorded apparent Kd by entry
system: MS2 coat protein; test: apparent Kd, MS2 coat protein; higher = weaker binding; RNA-MaP array; FMN 200 µM where present; conditions: ligand present: flavin mononucleotide; designed as: OFF switch for flavin mononucleotide
Please give the number followed by its unit.

| monomer-sequence | apparent Kd |
| --- | --- |
| CAGGUAGACUGAGGAUAUACAUCUCUGGGCAAACCAGAGUAAAAUUCGACAUGAGGAUCACCCAUGUAGAAGGCAGUCUGCCUG | 24.1 nM |

Annotate the sequence GAAUAAUUGAUCCAAUUUAACUACAUGAGGAUCACCCAUGUGCAGGAUAUCGUAAUAUUUAUUUUCGAGAAGGGCAAGAACGGU with its measured apparent Kd.
320 nM

Annotate the sequence GGUUACAAGUAAGGAUAUGUAUAUGAAACAUAUACAGAAGGUACAUGAGGAUCACCCAUGUUCUUGCAAAGCGAAUAUGUAACC with its measured apparent Kd.
18.6 nM

Annotate the sequence AAGGCGGCUCAGGCCGAGUUUCGCAGAAGGGCACAUGAGGAUCACCCAUGUACCUGGUCUGAUGUGCAGGAUAUGUGAGUCAGC with its measured apparent Kd.
10.4 nM

Annotate the sequence UGUCGGAGCACAGGAUAUUACAUGAGGAUCACCCAUGUAUGAACCAAUAGCUGGAAACAGCAAUGUAAGAAGGCUGCUCCGACA with its measured apparent Kd.
5.71 nM
